- Read-out: UDP glucuronosyltransferase (UGT1A6), UGT1A6 (gene 54578)
- assay-method-text: LTEA_HepaRG_UGT1A6: Life Technologies and Expression Analysis (LTEA) Assay for UDP glucuronosyltransferase (UGT1A6) using HepaRG (AID 2283539)
- condition-notes: mRNA level, 48 h; actives raise or lower the signal
Calls of active or inactive are those of the source. Rule for the calls: active = hit-call score of the fitted dose curve at least 0.9, where 1 is the maximum; inactive = score below 0.9.
Output constraint: value belongs to 1 = active, 0 = inactive

QUERY: For "CCCC(=O)OCCC(C)C" , which call appears in the assay record?
RESULT: 0

QUERY: And "CCN(CC)C(=O)c1cc(S(=O)(=O)Cc2ccccc2)c(N2CCC(c3ccccc3)CC2)cc1N(CC)CCN(C)C" ?
RESULT: 1

QUERY: And "CC/C(=C(/CC)c1ccc(O)cc1)c1ccc(O)cc1" ?
RESULT: 1

QUERY: And CN1C(=O)N(c2ccccc2Br)Cc2cnc(Nc3ccc4c(c3)OCC(CO)O4)nc21 (stereo not drawn) ?
RESULT: 1

QUERY: And "Cc1cc2c(cc1C(F)(F)F)N(C(=O)Nc1ccc(Oc3cccnc3C)nc1)CC2" ?
RESULT: 1

QUERY: And "O=C(OCCCCCCOC(=O)c1ccccc1)c1ccccc1" ?
RESULT: 0

QUERY: And "CC(C)(c1cc(Br)c(O)c(Br)c1)c1cc(Br)c(O)c(Br)c1" ?
RESULT: 0

QUERY: And "c1ccc2ccccc2c1" ?
RESULT: 0

QUERY: And "CC(C)(C)c1csc(-c2cc3cc(OCc4ccccc4CC(=O)O)ccc3o2)n1" ?
RESULT: 1

QUERY: And "CC1(C)NC(=O)N(c2ccc([N+](=O)[O-])c(C(F)(F)F)c2)C1=O" ?
RESULT: 0

QUERY: And "O=C(Nc1ccc(Cl)cc1)Nc1ccc(Cl)c(Cl)c1" ?
RESULT: 1

QUERY: And "CCCCCCCCCCCC[N+](C)(C)C" ?
RESULT: 1

QUERY: And "CN(C[C@@H](CC[N+]12CCC(C3CCCCC3)(CC1)CC2)c1ccc(Cl)c(Cl)c1)C(=O)c1cc(C(F)(F)F)cc(C(F)(F)F)c1" ?
RESULT: 1

QUERY: And "Cc1ccc(C(C)C)cc1" ?
RESULT: 0

QUERY: And OC12N=C(c3ccccc3)SC1Cc1cc(Cl)ccc12 (stereo not drawn) ?
RESULT: 0

QUERY: And "Cc1cn([C@H]2C[C@H](N=[N+]=[N-])[C@@H](CO)O2)c(=O)[nH]c1=O" ?
RESULT: 0

QUERY: And "CCCCOC(=O)CC(CC(=O)OCCCC)(OC(C)=O)C(=O)OCCCC" ?
RESULT: 0

QUERY: And COCC(C)OCC(C)OCC(C)O (stereo not drawn) ?
RESULT: 0

----------
- Read-out: CFLAR gene, CFLAR (gene 8837)
- assay-method-text: LTEA_HepaRG_CFLAR: Life Technologies and Expression Analysis (LTEA) Assay for CFLAR gene using HepaRG (AID 2283455)
- condition-notes: mRNA level, 48 h; actives raise or lower the signal
Activity calls are given as the source filed them. Rule for the calls: active = hit-call score of the fitted dose curve at least 0.9, where 1 is the maximum; inactive = score below 0.9.
Output constraint: value belongs to active, inactive

QUERY: For "c1ccc2ccccc2c1" , which call appears in the assay record?
RESULT: inactive

QUERY: And "CCOC(=O)O[C@H](C)OC(=O)c1ccc2c(c1)cc(C(=O)NC1CCN(C(C)C)CC1)n2Cc1cc(-c2ccc(Cl)s2)on1" ?
RESULT: inactive

QUERY: And CC(O)CC(C)(C)O (centres undefined) ?
RESULT: inactive

QUERY: And "CC[C@H](NC(=O)c1cc(F)ccc1NS(=O)(=O)c1cccc2cccnc12)c1ccccc1" ?
RESULT: inactive

QUERY: And "O=C(O)Cn1c(=O)n(Cc2ccc(Br)cc2F)c(=O)c2ccc(Cl)cc21" ?
RESULT: inactive

QUERY: And "C[C@]12CC[C@@H]3c4ccc(O)cc4CC[C@H]3[C@@H]1CCC2=O" ?
RESULT: inactive

QUERY: And "CN(C)C(=O)C1(N2CCCCC2)CCN(CC[C@@]2(c3ccc(Cl)c(Cl)c3)CN(C(=O)c3ccccc3)CCO2)CC1" ?
RESULT: active

QUERY: And "COc1cc(C(=O)NC2CCN(C)CC2)ccc1Nc1ncc2c(n1)N(C1CCCC1)CC(F)(F)C(=O)N2C" ?
RESULT: active

QUERY: And "CCCCCc1ccc(N)cc1" ?
RESULT: inactive

QUERY: And "CCCCOC(=O)c1ccc(O)cc1" ?
RESULT: inactive

QUERY: And "COc1ccc2cc(S(=O)(=O)N[C@H](CC(=O)N[C@H](Cc3ccc(CN4[C@H](C)CCC[C@@H]4C)cc3)C(=O)N(C)C(C)C)c3ccc4c(c3)OCO4)ccc2c1" ?
RESULT: active

QUERY: And "CCCCCCCCCC(=O)O" ?
RESULT: inactive

QUERY: And "O=c1ccc2ccccc2o1" ?
RESULT: inactive

QUERY: And "O=C(O)c1ccccc1-n1cc(C(=O)O)c(=O)c2cc(Nc3c(F)cc(F)cc3Cl)c(Cl)cc21" ?
RESULT: inactive

QUERY: And "O=CCCCC=O" ?
RESULT: inactive

QUERY: And "CC1(C)NC(=O)N(c2ccc([N+](=O)[O-])c(C(F)(F)F)c2)C1=O" ?
RESULT: inactive

QUERY: And "O=C(OCCCCCCOC(=O)c1ccccc1)c1ccccc1" ?
RESULT: inactive

QUERY: And "CC(C)(O)c1ccc(CNC(=O)c2cccnc2Oc2ccc3nonc3c2)cc1" ?
RESULT: inactive

QUERY: And "Cc1cn([C@H]2C[C@H](N=[N+]=[N-])[C@@H](CO)O2)c(=O)[nH]c1=O" ?
RESULT: inactive

QUERY: And "C[C@]12CC[C@@H]3c4ccc(O)cc4CC[C@H]3[C@@H]1CC[C@H]2O" ?
RESULT: inactive

QUERY: And "CCN(CC)C(=O)c1cc(S(=O)(=O)Cc2ccccc2)c(N2CCC(c3ccccc3)CC2)cc1N(CC)CCN(C)C" ?
RESULT: inactive

QUERY: And "Cc1c2ccccc2c(C)c2c1ccc1ccccc12" ?
RESULT: active

QUERY: And "O=C1CCC(C2CCCCC2)CC1" ?
RESULT: inactive

QUERY: And "CCCCCCCCCCCCO" ?
RESULT: inactive

QUERY: And "CCCC(=O)OCCC(C)C" ?
RESULT: inactive

QUERY: And "CN(C)c1ccc(C(=C2C=CC(=[N+](C)C)C=C2)c2ccc(N(C)C)cc2)cc1" ?
RESULT: active

QUERY: And "CCCCOC(=O)CC(CC(=O)OCCCC)(OC(C)=O)C(=O)OCCCC" ?
RESULT: inactive

QUERY: And "c1ccc(C[n+]2cccc3ccccc32)cc1" ?
RESULT: inactive

QUERY: And "CCCCCCCCCCCC[N+](C)(C)C" ?
RESULT: inactive

----------
- Read-out: Thyroid Hormone Responsive (THRSP), THRSP (gene 7069)
- assay-method-text: LTEA_HepaRG_THRSP: Life Technologies and Expression Analysis (LTEA) Assay for Thyroid Hormone Responsive (THRSP) using HepaRG (AID 2283536)
- condition-notes: mRNA level, 48 h; actives raise or lower the signal
Calls of active or inactive are those of the source. The calls were made as follows: active = hit-call score of the fitted dose curve at least 0.9, where 1 is the maximum; inactive = score below 0.9.
Output constraint: value belongs to active, inactive

QUERY: For "Cc1cn([C@H]2C[C@H](N=[N+]=[N-])[C@@H](CO)O2)c(=O)[nH]c1=O" , which call appears in the assay record?
RESULT: inactive

QUERY: And "CCCCCCCCCC(=O)O" ?
RESULT: inactive

QUERY: And "CCCOC(=O)c1cc(O)c(O)c(O)c1" ?
RESULT: inactive

QUERY: And "CN(C)C(=O)C1(N2CCCCC2)CCN(CC[C@@]2(c3ccc(Cl)c(Cl)c3)CN(C(=O)c3ccccc3)CCO2)CC1" ?
RESULT: active

QUERY: And "O=C1c2ccccc2C(=O)N1CCc1noc(-c2ccc(CN3CCCCCC3)s2)n1" ?
RESULT: inactive

----------
- assay-method-text: CCTE_Shafer_MEA_acute_cross_correlation_HWHM: CCTE's Neural Acute Assay for Cross Correlation at Half Width at Half Maximum, Shafer Lab (AID 2284026);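 note: percent change per well from pre-dose baseline in spike cross-correlogram half width; hits are a decrease in cross-correlogram half width relative to DMSO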
Activity calls are given as the source filed them. How the source made its calls: active means hit-call score of the fitted dose curve at least 0.9, where 1 is the maximum; inactive means score below 0.9.
Output constraint: value belongs to active, inactive

QUERY: For "c1ccc2n[nH]nc2c1" , which call appears in the assay record?
RESULT: inactive

QUERY: And "Cc1cn([C@H]2C[C@H](N=[N+]=[N-])[C@@H](CO)O2)c(=O)[nH]c1=O" ?
RESULT: inactive

QUERY: And "CCN(Cc1cccc(S(=O)(=O)O)c1)c1ccc(C(=C2C=CC(=[N+](CC)Cc3cccc(S(=O)(=O)O)c3)C=C2)c2ccccc2S(=O)(=O)[O-])cc1" ?
RESULT: inactive

QUERY: And "Cc1cc2c(cc1C(F)(F)F)N(C(=O)Nc1ccc(Oc3cccnc3C)nc1)CC2" ?
RESULT: inactive

QUERY: And "Cc1c2ccccc2c(C)c2c1ccc1ccccc12" ?
RESULT: active
